Molecular target: SYK (Homo sapiens, UniProt P43405)
pIC50: −log10 of the molar value.
Endpoint name: pIC50

(Q) So what does the record say about pIC50 for CC1=C(CC(=O)/C=C/c2cccc(CO)c2)C(=O)C=C2C1=CC=C1[C@@]2(C)CC[C@@]2(C)C3C[C@](C)(C(=O)CCc4nc(C(O)C(O)O)c(C)nc4C)CC[C@]3(C)CC[C@]12C (stereo partly shown) ?
(A) < 4.52

----------
Target: UniProtKB O15146
Sequence (O15146 24-869): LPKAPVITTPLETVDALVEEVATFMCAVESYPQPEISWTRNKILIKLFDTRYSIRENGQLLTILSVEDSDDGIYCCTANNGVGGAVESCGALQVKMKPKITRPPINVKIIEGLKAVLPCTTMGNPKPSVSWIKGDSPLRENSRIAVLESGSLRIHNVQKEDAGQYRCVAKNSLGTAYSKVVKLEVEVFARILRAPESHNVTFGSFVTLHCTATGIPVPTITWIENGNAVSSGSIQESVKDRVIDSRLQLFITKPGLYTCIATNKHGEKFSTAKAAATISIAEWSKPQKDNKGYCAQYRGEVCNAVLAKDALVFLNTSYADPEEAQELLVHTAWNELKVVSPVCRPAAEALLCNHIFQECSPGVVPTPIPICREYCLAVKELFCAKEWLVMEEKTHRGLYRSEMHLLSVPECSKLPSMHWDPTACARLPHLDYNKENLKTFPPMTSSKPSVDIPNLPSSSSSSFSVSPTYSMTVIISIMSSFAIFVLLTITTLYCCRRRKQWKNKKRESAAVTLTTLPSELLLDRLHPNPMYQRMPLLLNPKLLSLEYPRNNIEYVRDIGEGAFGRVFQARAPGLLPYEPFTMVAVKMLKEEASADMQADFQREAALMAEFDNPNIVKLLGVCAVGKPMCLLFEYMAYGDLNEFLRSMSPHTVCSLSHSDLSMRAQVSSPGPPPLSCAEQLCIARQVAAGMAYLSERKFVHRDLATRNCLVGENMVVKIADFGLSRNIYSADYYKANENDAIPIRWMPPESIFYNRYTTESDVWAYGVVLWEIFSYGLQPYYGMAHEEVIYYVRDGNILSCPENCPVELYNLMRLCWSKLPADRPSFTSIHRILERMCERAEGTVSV
pIC50: −log10 of the molar value.
Endpoint name: pIC50

(Q) # query: pIC50 of entry CC1=C(CC(=O)/C=C/c2cccc(CO)c2)C(=O)C=C2C1=CC=C1[C@@]2(C)CC[C@@]2(C)C3C[C@](C)(C(=O)CCc4nc(C(O)C(O)O)c(C)nc4C)CC[C@]3(C)CC[C@]12C (stereo partly shown)
(A) < 4.52
